Exercise: state measured Cynomologus WBSC IC50 (rhGROα) for each of the binders provided.
- Study system: T1, Cynomolgus CXCR2 (cynomolgus, UniProt Q28519 3-353 (rhesus entry))
- T1 chain: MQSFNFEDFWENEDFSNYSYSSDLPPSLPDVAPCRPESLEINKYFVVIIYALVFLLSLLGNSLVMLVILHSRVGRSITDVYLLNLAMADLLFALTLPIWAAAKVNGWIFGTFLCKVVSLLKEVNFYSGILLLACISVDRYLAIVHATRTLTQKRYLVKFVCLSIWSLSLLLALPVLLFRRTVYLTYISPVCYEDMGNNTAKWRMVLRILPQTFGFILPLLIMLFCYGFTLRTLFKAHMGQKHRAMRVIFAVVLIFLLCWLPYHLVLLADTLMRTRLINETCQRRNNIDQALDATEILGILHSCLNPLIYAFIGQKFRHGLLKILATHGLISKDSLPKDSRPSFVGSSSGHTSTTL
- Method: cell-based or functional assay

Here's what some known entries look like.
For record 163D2 (VHH, Tested as periplasmic extract (pAX50) and as purified His6-tagged protein (pAX100); also called 163D02; not shown: C-terminal c-myc tag and His6 tag coded by the vector) VHH: EVQLVESGGGLVQAGGSLRLSCAASGRTFSDYAMGWFRQAPGKEREFVAAITWNGGRVFYTASVKGRFTISRDNAKNTMYLQMNSLKPEDTAVYYCAADKDRRTDYLGHPVAYWGQGTQVTVSS the listed Cynomologus WBSC IC50 (rhGROα) is > 100 nM

For record 97A9 (VHH, Tested as periplasmic extract (pAX50) and as purified His6-tagged protein (pAX100); also called 097A09; not shown: C-terminal c-myc tag and His6 tag coded by the vector) VHH: EVQLVESGGGLVQPGGSLRLSCVASGSIVRINTMGWYRQTPGKQRELVADITSGGNINYIDAVKGRFTISRDNTKNTVYLQMNSLKPEDTAVYYCNAEIVVLVGVWTQRARTGNYWGQGTQVTVSS the listed Cynomologus WBSC IC50 (rhGROα) is > 100 nM

For record 127D1 (VHH, Tested as periplasmic extract (pAX50) and as purified His6-tagged protein (pAX100); also called 127D01; not shown: C-terminal c-myc tag and His6 tag coded by the vector) VHH: EVQLVESGGGLVQAGESLRLSCAASGSTFDFKVMGWYRQPPGKQREGVAAIRLSGNMHYAESVKGRFTISKANAKNTVYLQMNSLRPEDTAVYYCKVNIRGQDYWGQGTQVTVSS the listed Cynomologus WBSC IC50 (rhGROα) is > 100 nM

For record 54B12 (VHH, Tested as periplasmic extract (pAX50) and as purified His6-tagged protein (pAX100); also called 054B12; not shown: C-terminal c-myc tag and His6 tag coded by the vector) VHH: EVQLVESGGGLVQAGGSLTLSCAVSGSTFRINTMGWYRRAPGKQRELVAARDRGGYINYVDSVKGRFTVSRDNAKPTMYLQMNSLKPEDTAVYYCHAGTQDRTGRNFDRWGQGTQVTVSS the listed Cynomologus WBSC IC50 (rhGROα) is > 100 nM

For record 2B2 (VHH, Tested as periplasmic extract (pAX50) and as purified His6-tagged protein (pAX100); also called 002B02; not shown: C-terminal c-myc tag and His6 tag coded by the vector) VHH: EVQLVESGGELVQPGGSLRLSCAASGSILTINAMGWYRQAPGKQRELVVRRTRGGSTTYQDSVKGRFTISADIAKKTMYLQMNSLKPEDTAVYYCMLDDRGGVYWGQGTQVTVSS the listed Cynomologus WBSC IC50 (rhGROα) is > 100 nM

Consider now this further binder.
For record 163E3 (VHH, Tested as periplasmic extract (pAX50) and as purified His6-tagged protein (pAX100); also called 163E03; not shown: C-terminal c-myc tag and His6 tag coded by the vector) VHH: EVQLVESGGGLVQPGGSLRLSCVASGRIFSSNAMGWFRQAPGKEREFVAAITWRSGGSAYYADSAKGRFTISRDNAKNTVYLQMNSLKPEDTAVYYCAAGGSSWLSFPPDYWGQGTQVTVSS the listed Cynomologus WBSC IC50 (rhGROα) is > 100 nM
